System: COLO 205 colon
experimentalProtocol: NCI-60 one-dose screen, 48 h (100 = growth as untreated, 0 = no growth, -100 = all killed)
runParameters: 10 µM unless noted
About 83,000 compounds went through this panel and 20% of them were active in at least one assay; those are over-represented in the sample as a whole.
# growth per entry
experimentalReadout: growth (%)

> print(dat)
                          structureassmiles  unitannotation  testvalue
1  Oc1ccc(-c2nc(-c3ccc4oc5ccc(-c6[nH]c(-c7ccc(O)cc7)nc6-c6ccccc6)cc5c4c3)c(-c3ccccc3)[nH]2)cc1               %       53.8
2                            S=C1CCCC(=S)N1               %        115
3    Cc1cc2c(c(C)c1Cl)C(=O)/C(=C/c1ccco1)O2               %        113
4      CC(=S)NC(=O)C(=O)/C=C1/NC(=O)C(=O)S1               %        124
5  COc1ccc(Cn2cc(Cn3c(=O)c(-c4nc5ccccc5[nH]4)cc4ccccc43)nn2)c(OC)c1OC               %       13.5

###

System: UACC-62 melanoma
experimentalProtocol: NCI-60 one-dose screen, 48 h (100 = growth as untreated, 0 = no growth, -100 = all killed)
runParameters: 10 µM unless noted
Description: Growth inhibition of the UACC-62 human tumor cell line is measured as a screen for anti-cancer activity. Cells are grown in 96 well plates and exposed to the test compound for 48 hours. Compounds are tested at a single concentration, which is 10^-5 M for most compounds. The reported endpoint is percent growth (GI% or GIPRCNT), where numbers from 0 - 100% represent growth inhibition, and numbers from -100% - 0 represent cell death. For example, a value of 40 represents 60% growth inhibition. […]
About 83,000 compounds went through this panel and 20% of them were active in at least one assay; those are over-represented in the sample as a whole.
experimentalReadout: growth (%)

> print(dat)
                          structureassmiles  experimentalreadout  testvalue
1    COC(=O)c1cc2c(n1Cc1ccccc1)-c1oncc1CCC2               growth       49.7
2  O=C1N=c2ccccc2=C1c1sc(=Nc2ccccc2)n(Nc2ccccc2)c1O               growth       92.1
3    Clc1ccc(Nc2nnc(-c3ccc4c(c3)OCO4)o2)cc1               growth       88.9

###

growth: recorded values
Tested on: SNB-19 CNS
experimentalProtocol: NCI-60 one-dose screen, 48 h (100 = growth as untreated, 0 = no growth, -100 = all killed)
runParameters: 10 µM unless noted
This is part of a sample that, as a whole, favours compounds with a hit. Of some 83,000 tested, about 20% had one in any assay.
experimentalReadout: growth (%)

> print(dat)
                                   molecule  systemtested  unitannotation  testvalue
1  COc1ccc(C2c3ccc4ccccc4c3Oc3ncn(CCCn4ccnc4)c(=N)c32)cc1OC (stereo not drawn)    SNB-19 CNS               %       79.2
2  O=c1oc2ccc(-c3ccc(F)cc3F)cc2c(=O)n1-c1cccc(C(F)(F)F)c1    SNB-19 CNS               %       14.4
3  Cc1ccc2[nH]c(=O)cc(-n3nncc3Cn3c4ccccc4c4ccccc43)c2c1    SNB-19 CNS               %       97.1
4  O=C(/C=C/c1ccccn1)c1ccc(OCc2nnc(-c3ccc(Cl)cc3)o2)cc1    SNB-19 CNS               %       52.3
5  Nc1cccc(Nc2cc(S(=O)(=O)O)c(N)c3c2C(=O)c2ccccc2C3=O)c1    SNB-19 CNS               %        101
6  COc1ccc(Cn2c(Br)c3c(c2Br)-c2nc(NC(=O)c4ccc(OC)cc4)sc2CC3)cc1    SNB-19 CNS               %       80.1
7  CCn1c(Cc2ccccc2Nc2c(Cl)cccc2Cl)nnc1SCC(=O)NN1C(=O)/C(=C/c2cccc(OC)c2OC)SC1=S    SNB-19 CNS               %       91.2
8           O=C(Nc1ccc(Cl)cc1F)c1cc(F)ccc1O    SNB-19 CNS               %       22.8

Where these numbers come from: PubChem BioAssay (NCI)
